// data source = patent US20240352111A1

Target: T1, mArtemin-MMH (mouse)
T1 construct: also called msArtemin-MMH; msARTN.mmh
T1 chain: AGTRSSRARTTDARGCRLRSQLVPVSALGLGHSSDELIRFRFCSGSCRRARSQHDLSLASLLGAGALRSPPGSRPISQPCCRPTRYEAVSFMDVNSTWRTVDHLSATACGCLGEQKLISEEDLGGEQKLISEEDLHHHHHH
Test: BLI (Octet HTX), mAb captured on AHC tips, artemin at 7.5 nM, 25 C
endpoint: Artemin Binding Response (nm)
Give your result in nm as a bare value.

// returns reported Artemin Binding Response (nm) for input H4H33331P (antibody, human IgG4 S228P, kappa, V domains shown, Fully human antibody (human variable and constant domains) from a VELOCIMMUNE mouse; also called Artemin mAb; anti-ARTN antibody) VH: EVQLVESGGDLVQPGGSLKLSCAASGFTFSGSAMHWVRQASGKGLEWVGRIRNKVHRYATEYGASVKGRFTISRDDSKNTAYLQMNSLKIEDTAVYYCVVVVPGSIEAFDIWGQGTMVTVSS VL: DIQMTQSPSSLSASVGDRVTITCRASQSISTYLNWYQQKPGKAPNLLIYAASTLESGVPSRFSGSGSGTDFTLTISSLQPEDFEIYYCQQSYNIPWTFGQGTKVEIKR
0.07
